assay-explanation: Metabolic stability in human liver microsomes assessed as compound remaining at 1 uM in absence of UDPGA incubated for 5 mins by LC-ESI/MS/MS analysis relative to control
Type: ADME, microsome
experimental-setup: read-out: Stability
measured-property: remaining at 5 min, 1 µM (%)

- smi: "C[C@@H]1CN(c2ccc(-n3cnc4c(-c5ccccc5)cccc4c3=O)cn2)C[C@H](C)O1"
  remaining at 5 min, 1 µM (%): 93.1
- smi: "C[C@@H]1CN(c2ccc(-n3cnc4c(-c5ccc(F)cc5)cccc4c3=O)cn2)C[C@H](C)O1"
  remaining at 5 min, 1 µM (%): 83.2
- smi: "Cc1c(C(=O)Nc2ccc(N3C[C@@H](C)O[C@@H](C)C3)nc2)cccc1-c1ccc(OC(F)(F)F)cc1"
  remaining at 5 min, 1 µM (%): 89.5
- smi: "Cc1cc(=O)oc2cc(O)ccc12"
  remaining at 5 min, 1 µM (%): 92.2

Where do these numbers come from? They come from ChEMBL document CHEMBL4041510.
